- System under test: α-amylase (Sus scrofa, UniProt P00690)
- Construct: gene AMY2
- Sequence (P00690 16-511): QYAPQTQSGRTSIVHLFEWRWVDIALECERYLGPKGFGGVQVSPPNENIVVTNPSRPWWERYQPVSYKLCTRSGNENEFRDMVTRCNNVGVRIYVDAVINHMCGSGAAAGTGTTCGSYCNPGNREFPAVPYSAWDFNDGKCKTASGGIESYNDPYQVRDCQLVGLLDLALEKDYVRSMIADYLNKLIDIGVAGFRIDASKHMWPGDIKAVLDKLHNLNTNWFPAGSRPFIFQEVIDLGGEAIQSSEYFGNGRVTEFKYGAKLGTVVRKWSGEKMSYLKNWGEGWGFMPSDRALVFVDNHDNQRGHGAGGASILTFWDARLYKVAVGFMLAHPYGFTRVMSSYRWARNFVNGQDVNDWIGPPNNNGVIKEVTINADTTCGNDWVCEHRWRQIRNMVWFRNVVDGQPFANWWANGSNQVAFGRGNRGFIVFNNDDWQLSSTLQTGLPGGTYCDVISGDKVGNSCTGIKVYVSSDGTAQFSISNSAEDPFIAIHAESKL
- Assay summary: α-amylase inhibition assay of isolated compound; also captured by centrifugal ultrafiltration LC-MS with active but not denatured enzyme
- Format: biochemical
Readout type: IC50

The compound identified as C[C@@H]1O[C@@H](Oc2c(-c3ccc(O)c(O)c3)oc3cc(O)cc(O)c3c2=O)[C@H](O)[C@H](O)[C@H]1O [compound 1, quercetin-3-O-rhamnoside] registered its IC50 at 28.8 µM
